Protocol Text: Baboon [^18F]FNDP dynamic PET, baseline scans with kinetic modelling (2TCM, 1TCM, Logan)
Format: in vivo, baboon (Papio anubis)
Condition Context: male, baboon (Papio anubis), brain: temporal gyrus, intravenous, Temporal gyrus; baseline, mean ± SD of 3 baboons; read-out: 1TCM VT
Method: PET images were acquired using a CPS/CTI high-resolution research tomograph (HRRT), which has an axial resolution (FWHM) of 2.4 mm and in-plane resolution of 2.4–2.8 mm. […] These blocking studies were performed 27 to 43 days apart from each other to ensure full animal recovery. The animals had no food for 12 h prior to each PET study. […] Physiological vital signs including heart rate, blood pressure, electrocardiogram, and oxygen saturation were monitored continuously throughout the study. […]
Observable: Kp
One number for each entry.

Prompt: Which Kp is listed for O=C(NCCC(c1ccccc1)c1ccccc1)c1ccc([18F])nc1 [[^18F]FNDP] ?
Completion: 9.05

* * *

Protocol Text: Baboon [^18F]FNDP dynamic PET, baseline scans with kinetic modelling (2TCM, 1TCM, Logan)
Assay type: in vivo, baboon (Papio anubis)
Condition Context: male, baboon (Papio anubis), brain: thalamus, intravenous, Thalamus; baseline, mean ± SD of 3 baboons; read-out: 1TCM VT
Observable: Kp

Prompt: Consider the compound O=C(NCCC(c1ccccc1)c1ccccc1)c1ccc([18F])nc1 [[^18F]FNDP] and give its measured Kp.
Completion: 7.42
